Tested on: PNPLA3 mRNA
test-description: qRT-PCR of PNPLA3 mRNA in compound-treated primary human hepatocytes
measurement-conditions: hepatocytes, 10 uM
experimental-endpoint: Relative PINPLA3 mRNA
Output: the number by itself.

compound: COc1ncc(-c2ccc3nccc(-c4ccnnc4)c3c2)cc1NS(=O)(=O)c1ccc(F)cc1F
Relative PINPLA3 mRNA: 0.800

compound: O=C(Nc1nc2cccc(-c3ccc(CN4CCS(=O)(=O)CC4)cc3)n2n1)C1CC1
Relative PINPLA3 mRNA: 0.365

Query: Name the recorded Relative PINPLA3 mRNA of the item CN1C/C=C/CCOc2cccc(c2)-c2ccnc(n2)Nc2cccc(c2)C1 in your answer.
Reply: 0.413

Query: Name the recorded Relative PINPLA3 mRNA of the item C=CC(=O)N1C[C@H](COc2nc(Nc3cnn(C)c3)nc3[nH]cc(Cl)c23)[C@@H](OC)C1 in your answer.
Reply: 0.398

Query: Name the recorded Relative PINPLA3 mRNA of the item NCCC(O)(P(=O)(O)O)P(=O)(O)O [Pamidronate] in your answer.
Reply: 0.2

Query: Name the recorded Relative PINPLA3 mRNA of the item Cl.NNc1nncc2ccccc12 [Hydralazine HCI] in your answer.
Reply: 0.25

Query: Name the recorded Relative PINPLA3 mRNA of the item CC[C@@H]1C(=O)N(C)c2cnc(Nc3ccc(C(=O)NC4CCN(C)CC4)cc3OC)nc2N1C1CCCC1 in your answer.
Reply: 0.38

Query: Name the recorded Relative PINPLA3 mRNA of the item Cc1cnc(Nc2ccc(OCCN3CCCC3)cc2)nc1Nc1cccc(S(=O)(=O)NC(C)(C)C)c1 [Fedratinib (SAR302503, TG101348)] in your answer.
Reply: 0.25

Query: Name the recorded Relative PINPLA3 mRNA of the item C/C=C1\NC(=O)[C@H]2CSSCC/C=C/[C@H](CC(=O)N[C@H](C(C)C)C(=O)N2)OC(=O)[C@H](C(C)C)NC1=O [Romidepsin (FK228, Depsipeptide)] in your answer.
Reply: 0.3

###

Test system: PNPLA3 mRNA
test-description: qRT-PCR of PNPLA3 mRNA in human primary hepatic stellate cells
Assay type: cell-based
measurement-conditions: Human Stellate, 1 uM; read-out: PNPLA3 mRNA remaining after treatment compared to untreated cells
experimental-endpoint: mrna remaining at 1 µM

molecule: COc1ccc(-c2cc3c(C)nc(N)nc3n([C@H]3CC[C@H](OCCO)CC3)c2=O)cn1 [PF-04691502]
assay-target: PNPLA3 mRNA
mrna remaining at 1 µM: 20%

Query: Name the recorded mrna remaining at 1 µM of the item Cc1cccc(-c2nn3c(c2-c2ccnc4ccc(C(N)=O)cc24)CCC3)n1 [LY2157299 Galunisertib] in your answer.
Reply: 65%

Query: Name the recorded mrna remaining at 1 µM of the item N#CCNC(=O)c1ccc(-c2ccnc(Nc3ccc(N4CCOCC4)cc3)n2)cc1 [Momelotinib] in your answer.
Reply: 100%

Query: Name the recorded mrna remaining at 1 µM of the item CC(C)c1cc(CNc2nc(Nc3cc(C4CC4)[nH]n3)cc(N3CCN(C)CC3)n2)on1 [XL228] in your answer.
Reply: 80%

###

Items are presented alongside their recorded pAKT (473)/AKT.
System: phosphorylated AKT (pAKT/AKT)
test-description: Western blot of phosphorylated AKT in human hepatocytes
Type: cell-based
measurement-conditions: human hepatocytes, 3 μM, mTORC2 pathway; time point not stated
Output: the number by itself.

smiles-record: Cc1nc(NC(=O)N2CCC[C@H]2C(N)=O)sc1-c1ccnc(C(C)(C)C(F)(F)F)c1
pAKT (473)/AKT: 0.34
--
smiles-record: CO[C@H]1C[C@@H]2CC[C@@H](C)[C@@](O)(O2)C(=O)C(=O)N2CCCC[C@H]2C(=O)O[C@H]([C@H](C)C[C@@H]2CC[C@@H](O)[C@H](OC)C2)CC(=O)[C@H](C)/C=C(\C)[C@@H](O)[C@@H](OC)C(=O)[C@H](C)C[C@H](C)/C=C/C=C/C=C/1C
pAKT (473)/AKT: 2.55
--
smiles-record: COc1cccc2cc(-c3nc([C@H]4CC[C@H](C(=O)O)CC4)n4ncnc(N)c34)[nH]c12
pAKT (473)/AKT: 0.06
--
smiles-record: CS(=O)(=O)N1CCc2c(-c3cnc(N)nc3)nc(N3CCOCC3)nc21
pAKT (473)/AKT: 0.22

Attention now turns to another entry.
Query: Name the recorded pAKT (473)/AKT of the item COc1ccc(-c2cc3c(C)nc(N)nc3n([C@H]3CC[C@H](OCCO)CC3)c2=O)cn1 in your answer.
Reply: 0.06

###

Items are presented alongside their recorded Relative PINPLA3 mRNA.
System: PNPLA3 mRNA
test-description: qRT-PCR of PNPLA3 mRNA in compound-treated primary human hepatocytes
measurement-conditions: hepatocytes, 0.1 uM
Output: the number by itself.

smiles-record: Nc1cc(C(F)(F)F)c(-c2cc(N3CCOCC3)nc(N3CCOCC3)n2)cn1
Relative PINPLA3 mRNA: 1.049

smiles-record: Cc1c(CN2CCN(C(=O)[C@H](C)O)CC2)sc2c(N3CCOCC3)nc(-c3cnc(N)nc3)nc12
Relative PINPLA3 mRNA: 0.893

smiles-record: Nc1cc(C(F)(F)F)c(-c2nc(N3CCOCC3)nc(N3CCOCC3)n2)cn1
Relative PINPLA3 mRNA: 1.353

Query: Name the recorded Relative PINPLA3 mRNA of the item CS(=O)(=O)N1CCc2c(-c3cnc(N)nc3)nc(N3CCOCC3)nc21 in your answer.
Reply: 0.940

###

System: PNPLA3 mRNA
test-description: qRT-PCR of PNPLA3 mRNA in compound-treated primary human hepatocytes
measurement-conditions: donor 4282, 3 μM, relative to GUSB
experimental-endpoint: Primary Hepatocytes 4282 PNPLA3 (fold change in mRNA expression)
Output: the number by itself.

molecule: Nc1nc2cc(-c3ccc4ncc(C(=O)N5CCOCC5)n4c3)ccc2o1
endpoint-result: 0.97

Query: Name the recorded Primary Hepatocytes 4282 PNPLA3 (fold change in mRNA expression) of the item CO[C@H]1CC[C@H](N2C(=O)CNc3ncc(-c4ccc(C(C)(C)O)nc4)nc32)CC1 in your answer.
Reply: 0.80

Query: Name the recorded Primary Hepatocytes 4282 PNPLA3 (fold change in mRNA expression) of the item Nc1cc(C(F)(F)F)c(-c2cc(N3CCOCC3)nc(N3CCOCC3)n2)cn1 [Buparlisib (BKN120, NVE-BKM120)] in your answer.
Reply: 0.60

Query: Name the recorded Primary Hepatocytes 4282 PNPLA3 (fold change in mRNA expression) of the item C[C@H](Nc1ncnc2[nH]cnc12)c1nc2ccc(F)cc2c(=O)n1-c1ccccc1 in your answer.
Reply: 1.00

###

System: PNPLA3 mRNA
test-description: qRT-PCR of PNPLA3 mRNA in compound-treated primary human hepatocytes
measurement-conditions: hepatocytes, 0.3 uM
Items are presented alongside their recorded Relative PINPLA3 mRNA.
Output: the number by itself.

smiles-record: Cc1c(CN2CCN(C(=O)[C@H](C)O)CC2)sc2c(N3CCOCC3)nc(-c3cnc(N)nc3)nc12
endpoint-result: 0.669
--
smiles-record: CS(=O)(=O)N1CCc2c(-c3cnc(N)nc3)nc(N3CCOCC3)nc21
endpoint-result: 0.870
--
smiles-record: Nc1cc(C(F)(F)F)c(-c2cc(N3CCOCC3)nc(N3CCOCC3)n2)cn1
endpoint-result: 0.729

Query: Name the recorded Relative PINPLA3 mRNA of the item Nc1cc(C(F)(F)F)c(-c2nc(N3CCOCC3)nc(N3CCOCC3)n2)cn1 in your answer.
Reply: 0.8236

###

Items are presented alongside their recorded PNPLA3 mRNA remaining after treatment compared to untreated cells.
System: PNPLA3 mRNA
test-description: qRT-PCR of PNPLA3 mRNA in compound-treated mouse hepatocytes
Format: cell-based
measurement-conditions: Mouse hepatocytes, 10 uM

smiles-record: CN(c1ncccc1CNc1nc(Nc2ccc3c(c2)CC(=O)N3)ncc1C(F)(F)F)S(C)(=O)=O
endpoint-result: 0.27

smiles-record: COc1cc2c(cc1OC)CN(C(=O)/C=C/c1c(-c3ccccc3)n(C)c3ncccc13)CC2
endpoint-result: 0.50

smiles-record: COc1cccc2cc(-c3nc([C@H]4CC[C@H](C(=O)O)CC4)n4ncnc(N)c34)[nH]c12
endpoint-result: 0.35

Attention now turns to another entry.
Query: Name the recorded PNPLA3 mRNA remaining after treatment compared to untreated cells of the item FC(F)(F)c1ccc(/C=C/c2nc(COc3ccc(CCCCn4ccnn4)cc3)co2)cc1 in your answer.
Reply: 0.09

###

Tested on: PNPLA3 mRNA
test-description: qRT-PCR of PNPLA3 mRNA in compound-treated primary human hepatocytes
measurement-conditions: Homo sapiens, Hepatocyte, read-out: PNPLA3 mRNA remaining after treatment compared to untreated cells, H Hep Donor-4, 1 uM
experimental-endpoint: mrna remaining at 1 µM (%)
The reply should be a number in %, with the unit left off.

As a guide, the following entries are already answered.
molecule: N#CCNC(=O)c1ccc(-c2ccnc(Nc3ccc(N4CCOCC4)cc3)n2)cc1 [Momelotinib]
mrna remaining at 1 µM [%]: 110

molecule: Cc1cccc(-c2nn3c(c2-c2ccnc4ccc(C(N)=O)cc24)CCC3)n1 [LY2157299 Galunisertib]
mrna remaining at 1 µM [%]: 75

molecule: CC(C)c1cc(CNc2nc(Nc3cc(C4CC4)[nH]n3)cc(N3CCN(C)CC3)n2)on1 [XL228]
mrna remaining at 1 µM [%]: 55

Attention now turns to another entry.
Query: Recall the reported mrna remaining at 1 µM of COc1ccc(-c2cc3c(C)nc(N)nc3n([C@H]3CC[C@H](OCCO)CC3)c2=O)cn1 [PF-04691502] on PNPLA3 mRNA and write it down.
Reply: 45
